- protocol.notes: DPPH radical scavenging assay
- Assay type: biochemical
- Description: All samples were evaluated for their scavenging ability with the help of UV-visible spectrophotometer at different concentrations of 40, 80, 120, 160, 200, and 240 μM [6, 28]. While performing the antioxidant properties for the DPPH, hydroxyl, superoxide, and nitric oxide radical scavenging, the absorbance at 517, 230, 590, and 546 nm, respectively, was closely observed. In addition, the observed IC50 values of all samples were compared with ascorbic acid. […]
measurement.type: pIC50
Give bare numbers, as −log10 of the molar value.

compound	pIC50
[Cu+2].[O-]c1ccccc1N=Cc1ccc(N2CCOCC2)cc1.[O-]c1ccccc1N=Cc1ccc(N2CCOCC2)cc1.c1ccc(-c2ccccn2)nc1 [(1a), [Cu(L)2(bpy)]]	3.80

Read the next record carefully.
Dear colleague, please send me the reported pIC50 for O=C1O[C@H]([C@@H](O)CO)C(O)=C1O [Ascorbic acid, reference compound] when you can. 4.10

###

- protocol.notes: Superoxide scavenging assay
- Type: biochemical
- assay.conditions: 120 µM, 590 nm
- Description: All samples were evaluated for their scavenging ability with the help of UV-visible spectrophotometer at different concentrations of 40, 80, 120, 160, 200, and 240 μM [6, 28]. While performing the antioxidant properties for the DPPH, hydroxyl, superoxide, and nitric oxide radical scavenging, the absorbance at 517, 230, 590, and 546 nm, respectively, was closely observed. In addition, the observed IC50 values of all samples were compared with ascorbic acid. […]
measurement.type: % Inhibition superoxide (%)
One number for each entry, in %.

Below: 3 molecules and their reported % Inhibition superoxide.
molecule	unit.spec	meas.value
[Cu+2].[O-]c1ccccc1N=Cc1ccc(N2CCOCC2)cc1.[O-]c1ccccc1N=Cc1ccc(N2CCOCC2)cc1.c1ccc(-c2ccccn2)nc1 [(1a), [Cu(L)2(bpy)]]	%	31.86
O=C1O[C@H]([C@@H](O)CO)C(O)=C1O [Ascorbic acid, reference compound]	%	55.63
[O-]c1ccccc1N=Cc1ccc(N2CCOCC2)cc1.[O-]c1ccccc1N=Cc1ccc(N2CCOCC2)cc1.[Zn+2].c1ccc(-c2ccccn2)nc1 [(2a), [Zn(L)2(bpy)]]	%	24.14

Read the next record carefully.
Dear colleague, please send me the reported % Inhibition superoxide for Oc1ccccc1N=Cc1ccc(N2CCOCC2)cc1 [(HL), 2-(4-morpholinobenzylideneamino)phenol] when you can. 18.85

###

- protocol.notes: Nitric oxide scavenging assay
- Format: biochemical
- assay.conditions: 120 µM, 546 nm
measurement.type: % Inhibition nitric oxide (%)
Numbers only, in %.

Below: 2 compounds and their reported % Inhibition nitric oxide.
compound	unit.spec	% Inhibition nitric oxide
[O-]c1ccccc1N=Cc1ccc(N2CCOCC2)cc1.[O-]c1ccccc1N=Cc1ccc(N2CCOCC2)cc1.[Zn+2].c1ccc(-c2ccccn2)nc1 [(2a), [Zn(L)2(bpy)]]	%	28.87
O=C1O[C@H]([C@@H](O)CO)C(O)=C1O [Ascorbic acid, reference compound]	%	43.65

Quick request: % Inhibition nitric oxide for each listed item, please.
1. [Cu+2].[O-]c1ccccc1N=Cc1ccc(N2CCOCC2)cc1.[O-]c1ccccc1N=Cc1ccc(N2CCOCC2)cc1.c1ccc(-c2ccccn2)nc1 [(1a), [Cu(L)2(bpy)]]
2. Oc1ccccc1N=Cc1ccc(N2CCOCC2)cc1

35.06
24.28

###

- protocol.notes: Hydroxyl radical scavenging assay
- Type: biochemical
- assay.conditions: 160 µM, 230 nm
measurement.type: % Inhibition hydroxyl radical (%)
One number for each entry, in %.

Below: 3 molecules and their reported % Inhibition hydroxyl radical.
molecule	meas.value
O=C1O[C@H]([C@@H](O)CO)C(O)=C1O [Ascorbic acid, reference compound]	59.65
[O-]c1ccccc1N=Cc1ccc(N2CCOCC2)cc1.[O-]c1ccccc1N=Cc1ccc(N2CCOCC2)cc1.[Zn+2].c1ccc(-c2ccccn2)nc1 [(2a), [Zn(L)2(bpy)]]	34.66
Oc1ccccc1N=Cc1ccc(N2CCOCC2)cc1	33.86

Read the next record carefully.
Dear colleague, please send me the reported % Inhibition hydroxyl radical for [Cu+2].[O-]c1ccccc1N=Cc1ccc(N2CCOCC2)cc1.[O-]c1ccccc1N=Cc1ccc(N2CCOCC2)cc1.c1ccc(-c2ccccn2)nc1 [(1a), [Cu(L)2(bpy)]] when you can. 40.12
